meta.source: paper PMC10816875

testProtocol: CCK-8 viability of 3T3 fibroblast cells
Assay type: cell-based
experimentalSetup: mouse, 3T3/NIH fibroblast cells (non-cancerous), read-out: % Cell viability against 3T3 fibroblast cell line
Description: For the anticancer studies, we established a stable cell culture for mouse breast cancer cell line 4T1 (ATCC: CRL-2539) cultured in the medium composition RPMI-1640 (Gibco; Grand Island, New York, USA), 10% fetal bovine serum (Gibco, Mexico), 4.5 g/L glucose, 1.5 g/L NaHCO3, 1 mM sodium pyruvate (Gibco; Grand Island, New York, NY, USA), and 1% penicillin–streptomycin (10,000 U/mL). […] A non-cancerous fibroblast cell line (3T3/NIH, ATCC: CRL-1658) was employed for the fluorescence imaging assay. […]
parameter: viability at 72 h, 1 μg/mL

(Q) Query (molecule): O=C1c2cccc3cccc(c23)C(=O)N1CCN1CCN(S(=O)(=O)c2ccccc2[N+](=O)[O-])CC1 [SA1] ; field requested: viability at 72 h, 1 μg/mL
(A) 82 to 95%
